Test system: Ramos
Assay: Cytotoxicity against human Ramos cells assessed as decrease in cell viability after 24 hrs by CellTiter-Glo assay
Type: functional, cell-based
metric_name: IC50 (µM)
Entry rule: numbers only, all in µM.

As a guide, the following entries are already answered.
C=CC(=O)N1CCC[C@@H](n2nc(-c3ccc(Oc4ccccc4)cc3)c3c(N)ncnc32)C1 [IBRUTINIB]    28.7
CO[C@H]1CCC2(Oc3cccc4cccc(c34)O2)C2=C1C(=O)C=CC2=O    31.7
O=C1C2=CCCC3(Oc4cccc5cccc(c45)O3)[C@@H]2[C@H](O)[C@@H]2O[C@H]12    18
O=C1CCC2(Oc3cccc4cccc(c34)O2)c2c(O)ccc(O)c21 [PALMARUMYCIN CP17]    33.1

## Input Bench note: what IC50 did CO[C@@H]1CC(=O)C2=CCCC3(Oc4cccc5cccc(c45)O3)[C@@H]2[C@@H]1O show?
## Output 0.461

## Input Bench note: what IC50 did O=C1CCC(O)c2cccc(O)c21 (stereo not drawn) [4,8-DIHYDROXY-1-TETRALONE] show?
## Output 23.1

## Input Bench note: what IC50 did CC(=O)O[C@@H]1C=CC(=O)C2=CCCC3(Oc4cccc5cccc(c45)O3)[C@@H]21 show?
## Output 0.018

###

Catalogue of IC50 values
System: NCI-H1975
Experiment: Cytotoxicity against human NCI-H1975 cells assessed as decrease in cell viability after 72 hrs by CellTiter-Glo assay
Type: functional, cell-based
Conditions: NCI-H1975, 72 h
Entry rule: numbers only, all in µM.

O=C1C=C[C@@H](O)[C@@H]2C1=CCCC21Oc2cccc3cccc(c23)O1    1.17

# input for lookup
## Input Bench note: what IC50 did CO[C@@H]1CC(=O)C2=CCCC3(Oc4cccc5cccc(c45)O3)[C@@H]2[C@@H]1O show?
## Output 10.2

###

Catalogue of IC50 values
System: NCI-H1975
Assay: Cytotoxicity against human NCI-H1975 cells assessed as decrease in cell viability after 72 hrs by CellTiter-Glo assay
Type: functional, cell-based
Details: NCI-H1975, 72 h

As a guide, the following entries are already answered.
O=C1C=C[C@]2(Oc3cccc4c(O)ccc(c34)O2)c2ccccc21    > 100 µM
O=C1CCC2(Oc3cccc4cccc(c34)O2)c2c(O)ccc(O)c21    > 100 µM
O=C1CC[C@]23Oc4ccc(O)c5c4[C@@](C=CC5=O)(Oc4cccc1c42)O3    > 100 µM

# input for lookup
## Input Notebook: pull reported IC50 for NCI-H1975, entry CO[C@H]1CCC2(Oc3cccc4cccc(c34)O2)C2=C1C(=O)C=CC2=O
## Output > 100 µM

###

Test system: Ramos
Assay: Cytotoxicity against human Ramos cells assessed as decrease in cell viability after 24 hrs by CellTiter-Glo assay
Format: functional, cell-based
Catalogue of pIC50 values
Note on units: pIC50 is unitless, being -log10 of a concentration expressed in mol/L.

O=C1CC[C@]23Oc4ccc(O)c5c4[C@@](C=CC5=O)(Oc4cccc1c42)O3    4.08
O=C1C=C[C@@H](O)[C@@H]2C1=CCCC21Oc2cccc3cccc(c23)O1    7.32
O=C1CCC2(Oc3cccc4cccc(c34)O2)c2cccc(O)c21 [PALMARUMYCIN CP2]    4.74

## Input Bench note: what pIC50 did O=C1C=C[C@]2(Oc3cccc4c(O)ccc(c34)O2)c2ccccc21 show?
## Output 4.82

###

Catalogue of IC50 values
Test system: NCI-H1975
Experiment: Cytotoxicity against human NCI-H1975 cells assessed as decrease in cell viability after 72 hrs by CellTiter-Glo assay
Assay type: functional, cell-based
Conditions: NCI-H1975, 72 h

As a guide, the following entries are already answered.
Oc1cccc2c1[C@@H](O)CCC21Oc2cccc3cccc(c23)O1    > 100 µM
O=C1CCC2(Oc3cccc4cccc(c34)O2)c2cccc(O)c21 [PALMARUMYCIN CP2]    > 100 µM

# input for lookup
## Input Notebook: pull reported IC50 for NCI-H1975, entry O[C@H]1[C@@H]2[C@H]([C@@H](O)CCC23Oc2cccc4cccc(c24)O3)[C@@H](O)C[C@@H]1O
## Output > 100 µM

Source of measurements: ChEMBL document CHEMBL4033616
